- System: NCI-H522 lung
- assayExplanation: NCI tumour cell line growth inhibition, 48 h
metricName: TGI (µM)
Give bare numbers, in µM.

INSERT INTO measurements (compound, metricname, units, valuemeasured) VALUES
  ('C(#Cc1ccccc1C#Cc1ccccn1)c1ccc(OCCCCCCOc2ccc(C#Cc3ccccc3C#Cc3ccccn3)cc2)cc1', 'TGI', 'µM', 13.1),
  ('C=C1CCC2C(C)(CO)C(O)CCC2(C)C1CC(O)C1=CCOC1=O (stereo not given)', 'TGI', 'µM', 20.3),
  ('CC(=O)O[C@H]1C(=O)[C@@]2(C)[C@H]([C@H](OC(=O)c3ccncc3)[C@]3(O)C[C@H](OC(=O)[C@H](O)[C@@H](NC(=O)c4ccccc4)c4ccccc4)C(C)=C1C3(C)C)[C@]1(OC(C)=O)CO[C@@H]1C[C@@H]2O', 'TGI', 'µM', 10.2),
  ('[O-][n+]1onc2c1-c1nonc1CC2', 'TGI', 'µM', 95.1),
  ('Cc1ccc2nc(Cl)c(/C=N/N3C(=O)/C(=C/Cc4ccco4)N=C3c3ccccc3)cc2c1', 'TGI', 'µM', 74);

Could I get TGI for every one of these entries?
1. CO[C@H]1C[C@H](O[C@H]2CC[C@]3(C=O)[C@H]4CC[C@]5(C)[C@@H](C6=CC(=O)OC6)CC[C@]5(O)[C@@H]4CC[C@]3(O)C2)O[C@H](C)[C@H]1O[C@@H]1O[C@H](CO[C@@H]2O[C@H](CO)[C@@H](O)[C@H](O)[C@H]2O)[C@@H](O)[C@H](O)[C@H]1O
2. O=C1C=Cc2c(I)sc(I)c21
3. COC(=O)C12OCC34C(CC5C(C)=CC(=O)C(O)C5(C)C3C(O)C1O)OC(=O)C(OC(=O)CC(C)C)C24 (stereo not given)

A:
0.0638
6.97
0.00118

---

- System: OVCAR-3 ovarian
- assayExplanation: NCI tumour cell line growth inhibition, 48 h; in the data active = GI50 below about 0.43 µM; inactive = the rest
Please state which outcome applies, choosing from label 1 for active, label 0 for inactive

INSERT INTO results (smilesrepr, subjectoftest, assignedlabel) VALUES
  ('Cc1ccc(S(=O)(=O)C2=C3C(=C(c4ccccc4)c4ccccc43)CN(S(=O)(=O)c3ccc(C)cc3)C2)cc1', 'OVCAR-3 ovarian', 'label 0');

# ---- query molecule ----
Q: Kindly provide the recorded test outcome for the following molecule: CCCNNC(=O)c1ccc(CNC(=O)/C=C/c2ccccc2)cc1
A: label 1

---

So I've got a bunch of molecules here, and I need their TGI values.
- Tested on: SN12C renal
- assayExplanation: NCI tumour cell line growth inhibition, 48 h

Illustrative cases are given below, each with its answer.
INSERT INTO results (molecule, metricname, valuemeasured) VALUES
  ('CC(C)(C)OC(=O)N1C(=O)OC[C@@H]2C=C[C@@H]21', 'TGI', '> 100 µM'),
  ('Cc1ccc2cccc(OC(=O)c3cc4c(cc3Cl)Sc3nccn3S4(=O)=O)c2n1', 'TGI', '> 100 µM'),
  ('COc1ccc(C2Oc3c(cccc3OC)C=C2[N+](=O)[O-])cc1 (stereo unspecified)', 'TGI', '5.66 µM'),
  ('O=C1[C@H](c2ccccc2)C2c3ccccc3CCN12 (stereo partly specified)', 'TGI', '> 100 µM'),
  ('CC1CC(=O)NC2CC1C2(C)C (stereo unspecified)', 'TGI', '> 100 µM');

We now examine a further molecule.
Q: Requested read-out: TGI. Entry: CC(C)[C@H](NC(=O)[C@@H](O)[C@H](N)Cc1ccccc1)C(=O)N[C@@H](Cc1ccccc1)C(=O)O
A: > 100 µM
